The values you see were collected from patent US20210388087A1.

Molecular target: T1, Human CD3eg linker (human)
T1 construct: single-chain construct; also called recombinant human CD3
T1 chain: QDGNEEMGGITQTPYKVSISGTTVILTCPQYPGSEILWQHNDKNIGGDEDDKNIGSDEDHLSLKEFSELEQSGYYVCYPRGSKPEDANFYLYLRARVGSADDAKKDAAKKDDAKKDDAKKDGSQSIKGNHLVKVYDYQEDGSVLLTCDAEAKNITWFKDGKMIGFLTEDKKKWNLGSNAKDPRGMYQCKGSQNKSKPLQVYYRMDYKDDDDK
Assay: SPR, vs unmutated H183/L072
observationType: fold change of affinity (fold)
Give a bare numeral; the unit fold is implied.

binder: dBBDu183H T100bR/dBBDu072L (antibody, name in Kabat numbering, V domains shown) VH: QVQLVESGGGLVQPGRSLRLSCAASGFTFSNAWMHWVRQAPGKGLEWVAQIKDKGNAYAAYYAPSVKGRFTISRDDSKNSIYLQMNSLKTEDTAVYYCHYVHYASASRVLPAFGVDAWGQGTTVTVSS VL: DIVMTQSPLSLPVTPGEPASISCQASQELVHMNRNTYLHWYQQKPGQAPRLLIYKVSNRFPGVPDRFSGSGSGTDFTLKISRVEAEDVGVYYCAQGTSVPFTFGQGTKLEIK
numericResult: 1.8

Please find the next binder below.
For reference, reported fold change of affinity for dBBDu183H V100iN/dBBDu072L (antibody, name in Kabat numbering, V domains shown) VH: QVQLVESGGGLVQPGRSLRLSCAASGFTFSNAWMHWVRQAPGKGLEWVAQIKDKGNAYAAYYAPSVKGRFTISRDDSKNSIYLQMNSLKTEDTAVYYCHYVHYASASTVLPAFGNDAWGQGTTVTVSS VL: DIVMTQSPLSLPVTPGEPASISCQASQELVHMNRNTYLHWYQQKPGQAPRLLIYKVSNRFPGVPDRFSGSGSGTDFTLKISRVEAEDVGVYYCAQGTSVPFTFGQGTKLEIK stands at 5
